- protocol_summary: Brain distribution studies
- Type: in vivo
- conditions_used: brain/plasma; rat, intravenous 0.5 mg/mL/kg, 30 minutes later; read-out: brain Kp value (area ratio brain/plasma)
readout_name: Kp at 0.5 h
A bare number is all that is needed in reply.

Incoming: Give the reported value of Kp at 0.5 h for this record: `C[C@@]1(c2cc(Nc3ncccc3C#N)ccc2F)CCSC(N)=N1`
Outgoing: 2.2

The origin of these recorded values is patent US20120238557A1.
